Sourced from the supplement of paper PMC11451515

Tested on: SEM cells
PROTOCOL DETAILS: cell viability relative to DMSO control; higher = less cytotoxic
TEST CONDITIONS: RPMI 5 mM glucose + 10% FBS; 48 h; 0.0632 µM
METRIC NAME: cell viability (%)
# value in %; strip the unit string

{"MOLECULE": "CC1=C(C)C(=O)C(C(CCCCCC(=O)O)c2ccccc2)=C(C)C1=O (stereo not given)", "cell viability [%]": 75.1}
{"MOLECULE": "OC[C@@H](O)[C@@H](O)[C@H](O)[C@@H](O)CO", "cell viability [%]": 113}
{"MOLECULE": "CN(C)C(=N)NC(=N)N", "cell viability [%]": 152}

Request: Name the recorded cell viability for N[S+]([O-])(=O)C1=C(Cl)C=C2\N=C/N[S+]([O-])(=O)C2=C1 .
Result: 92.5

Request: Name the recorded cell viability for ClC1=CC=C(C=C1)C(C#N)C2=C(Cl)C=C(C=C2Cl)N3\N=C/C(=O)NC3=O (stereo not given) .
Result: 87.1

Request: Name the recorded cell viability for CCOC(=O)N1CCN(/[N+]([O-])=N/Oc2ccc([N+](=O)[O-])cc2C#N)CC1 .
Result: 110
